Give measured ECM AVRG (average KD, hLTBP1 and hLTBP3 complexes) for each item. Keep answers brief.
biological target: Matrix-associated proTGFβ1 complexes (hLTBP1-proTGFβ1 and hLTBP3-proTGFβ1); test: MSD-SET, hIgG4
One number for each entry, in nM.

Some entries whose results are on file:
binder | result value
Ab29 (antibody, IgG4, V domains shown) VH: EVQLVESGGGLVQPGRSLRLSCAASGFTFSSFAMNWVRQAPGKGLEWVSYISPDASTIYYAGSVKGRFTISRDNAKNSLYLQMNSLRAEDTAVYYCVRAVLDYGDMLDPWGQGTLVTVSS VL: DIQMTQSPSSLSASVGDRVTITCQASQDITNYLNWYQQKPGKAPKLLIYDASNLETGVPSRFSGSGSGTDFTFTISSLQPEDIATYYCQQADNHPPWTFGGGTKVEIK | 0.012
Ab30 (antibody, IgG4, V domains shown) VH: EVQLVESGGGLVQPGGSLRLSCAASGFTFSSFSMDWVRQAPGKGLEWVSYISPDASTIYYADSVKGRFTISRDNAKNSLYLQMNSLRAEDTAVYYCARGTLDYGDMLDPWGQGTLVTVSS VL: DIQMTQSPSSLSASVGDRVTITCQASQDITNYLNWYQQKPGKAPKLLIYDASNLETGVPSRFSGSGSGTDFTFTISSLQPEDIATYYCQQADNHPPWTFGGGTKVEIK | 0.029

Attention now turns to another entry.
Consider the binder Ab31 (antibody, IgG4, V domains shown) VH: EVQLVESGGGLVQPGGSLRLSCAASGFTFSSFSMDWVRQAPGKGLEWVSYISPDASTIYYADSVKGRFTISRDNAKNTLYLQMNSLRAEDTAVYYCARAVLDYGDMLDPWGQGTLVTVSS VL: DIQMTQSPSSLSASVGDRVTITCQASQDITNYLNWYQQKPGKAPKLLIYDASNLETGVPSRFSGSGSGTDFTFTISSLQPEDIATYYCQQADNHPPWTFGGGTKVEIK and give its recorded ECM AVRG (average KD, hLTBP1 and hLTBP3 complexes).
0.017
